Assay: compound binding in COS7 lysate, probe aLAP1, primary screen, cell lysate, small-molecule microarray (AID 1124);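 note: lysate comes from COS7 cells expressing LAP1 and is applied at 0.3 µg/mL; score merges spot fluorescence near 667 nm with signal-to-noise over triplicate slides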
Details: probe aLAP1, fluorescence, higher = more signal
Kind request: treat 0.4 as inclusive, so composite z-score at 0.4 or higher is 1 (yes), anything lower is 0 (no).

Identify whether the reported composite z-score of the following compound is 0.4 or greater: [N-]=[N+]=NCc1ccccc1[C@H]1OC(c2ccc(OCCCO)cc2)=N[C@@]1(CCS(=O)(=O)c1ccccc1)C(N)=O
1 (yes)

Threshold query (composite z-score >= 0.4) on C=C(CCCC)C(=O)CC[C@@H](OC(=O)c1cccnc1)c1ccccc1OCCO
0 (no)

# bool: composite z-score of C=C(CCCC)C(=O)CC[C@@H](OC(=O)c1ccccc1-c1ccccc1C(=O)O)c1cccc(OCCO)c1 >= 0.4
1 (yes)

Test whether the compound Cc1ccc(F)cc1S(=O)(=O)N[C@@H]1CCN(Cc2ccc(Oc3ccccc3)cc2)C1 records composite z-score of 0.4 or higher.
0 (no)

Is it the case that COc1ccc([Si](C)(C)[C@@H]2[C@@H](CCO)O[C@]3(C(=O)N(Cc4cccc(N5C(=O)c6ccccc6Oc6ccccc65)c4)c4ccccc43)[C@H]2C)cc1 has composite z-score reaching or exceeding 0.4?
1 (yes)

API: above_or_equal(metric=composite z-score, cutoff=0.4) for item CN(C)CCCNC(=O)[C@@]1(C)c2ccccc2C(=O)N(Cc2cc(C(F)(F)F)cc(C(F)(F)F)c2)[C@H]1c1ccc(CO)cc1
0 (no)

Determine whether this compound has composite z-score no lower than 0.4: C[C@]1(C(=O)NCCN2CCOCC2)c2ccccc2C(=O)N(Cc2ccc(OC(F)(F)F)cc2)[C@H]1c1ccc(CO)cc1
0 (no)

Is reported composite z-score greater than or equal to 0.4 here: C=C(/C(=C/C[C@@H](OC(=O)c1ccncc1)c1ccc(OCCO)cc1)c1cc(C(=O)OC)ccc1OC)C(C)C
0 (no)

Answer whether composite z-score of O=C(O)[C@H](Cc1ccccc1)n1cc(-c2ccccn2)nn1 is greater than or equal to 0.4.
0 (no)

Item O=C1NCC(=O)N2[C@@H]1C[C@@H](C(=O)O)[C@H]2c1ccc(O)cc1 with composite z-score of 0.4 or above?
0 (no)

Can COCCOC(=O)N1C(=O)[C@@]2(c3cc(C#CCC(C(=O)OC)C(=O)OC)ccc31)[C@H](c1ccc(OCCO)cc1)N1[C@H](c3ccccc3)[C@H](c3ccccc3)OC(=O)[C@H]1[C@@H]2C(=O)N1CCN(c2ncccn2)CC1 be said to have composite z-score at or above 0.4?
0 (no)

Could you verify whether the entry C=CC[C@]12N=C(c3ccc(OCCCO)cc3)O[C@H]1c1ccccc1N(C)C2=O shows composite z-score of no less than 0.4?
1 (yes)

Assess whether reported composite z-score for COCC(=C=CC[C@H](O)c1ccc(OCCO)cc1)C[C@H](O)COCc1ccccc1 sits at 0.4 or higher.
1 (yes)

Form field: composite z-score at least 0.4? Entry: CN1C(=O)C2C=CC(C(O)C3CCCCC3)N(N3CCCCC3)C2C1=O (stereo unspecified)
1 (yes)

---

Experiment: inhibitors of hydroxyurea-induced Chk1 phosphorylation, primary screen, imaging, HeLa, phospho-Chk1 nuclear intensity (AID 1187); note: test concentration not given here
Settings: hydroxyurea-induced phospho-Chk1 immunofluorescence imaging, higher = more signal
RECORDED ENDPOINT: z-score
// no unit string in output, number only

Need z-score, item COCCOC(=O)N1C(=O)[C@@]2(c3ccccc31)[C@H](C(=O)N1CCN(c3ncccn3)CC1)[C@H]1C(=O)O[C@H](c3ccccc3)[C@H](c3ccccc3)N1[C@@H]2c1ccc(OCCO)cc1
0.182

Looking for the measured z-score of COCCOC(=O)N1C(=O)[C@@]2(c3cc(C#CCNC(N)=O)ccc31)[C@H](C(=O)N1CCCCCCC1)[C@H]1C(=O)O[C@H](c3ccccc3)[C@H](c3ccccc3)N1[C@@H]2c1ccc(O)cc1 , can you help?
0.132

If you can, please state the reported z-score value of COc1cc(CO)cc(I)c1O[C@H]1C=C(C(=O)NCCO)C[C@@H](N(CC2CCCCC2)C(=O)c2ccc(C(F)(F)F)cc2)[C@@H]1O .
-0.884

z-score for CCOC(=O)[C@H]1C/C=C/C[C@H](C(=O)OCC)C(=O)O[C@H]2[C@@H](OC)O[C@H](CO)[C@@H](OC(=O)Nc3ccc(OC)cc3)[C@@H]2OC1=O ?
0.395

Can you share its z-score? I mean this molecule: C=C[C@H](COC(C)=O)NS(=O)(=O)c1ccc(Br)cc1
-0.782

What z-score value was documented for this molecule, CN(C)CCCNC(=O)[C@@H]1c2ccccc2C(=O)N(Cc2ccc(OC(F)(F)F)cc2)[C@H]1c1ccc(CO)cc1 ?
-0.296

Any idea what z-score was measured for C=CCN1C(=O)[C@@]2(CCC(=O)OC(C)(C)C)N=C(c3ccc(OCCCO)cc3)O[C@H]2c2ccccc21 ?
-0.351

Name the recorded z-score for O=C1OCC=C[C@H]2OC34C=CCN(Cn5nnc6ccccc65)C(=O)[C@H]3N(CCCCCCO)C(=O)[C@@H]4[C@@H]12 (stereo partly drawn) .
0.521

Tell me the measured z-score of O=C(CS)NCCCCCCNC(=O)[C@@H]1C[C@@H]2C(=O)N3CCC[C@H]3C(=O)N2[C@@H]1c1cccc(OCCO)c1 , please.
-0.971

For the molecule COC(=O)[C@H](Cc1ccccc1)N1CC(/C=C/C2CC2)=C[C@@H]1[C@@H](O)Cc1ccccc1 , what z-score is on record?
-0.713

Data request, read-out z-score, for CCCCC(CC)C(O)C1C=CC2C(=O)N(c3ccccc3)C(=O)C2N1Nc1ccc([N+](=O)[O-])cc1 (stereo not drawn)
-0.383

Requested field: z-score. Item: Cc1ccc(S[C@]2(C(=O)NCC(F)(F)F)CC(=O)N(Cc3ccccc3)[C@@H]2c2ccc(CO)cc2)cc1
-0.603

I have this molecule here, CC(C)(C)OC(=O)CC[C@]1(C(=O)NCCN2CCOCC2)N=C(c2ccc(OCCCO)cc2)O[C@H]1c1ccccc1N=[N+]=[N-] , and I need its recorded z-score.
0.234

Any idea what its z-score is? The molecule is C=C(CCCC)C(=O)CC[C@@H](OC(=O)c1ccccc1-c1ccccc1C(=O)O)c1cccc(OCCO)c1
0.408

May I ask what z-score has been recorded for O=C1O[C@@H](c2ccccc2)[C@@H](c2ccccc2)N2[C@@H](c3ccccc3OCCO)[C@]3(C(=O)Nc4ccc(C#CCCO)cc43)[C@@H](C(=O)N3CCN(c4ncccn4)CC3)[C@H]12 ?
0.113

What value of z-score has been reported for the following molecule? COC(=O)[C@@]1(Cc2ccccc2)[C@H]2c3cc(C(=O)N4CCCC4)n(Cc4cc(F)cc5c4OCOC5)c3C[C@H]2CN1C(=O)c1ccccc1
0.435

Param item = O=C1OC[C@@H](c2ccccc2)N2CC(/C=C/c3ccccc3)=CC12 (stereo partly drawn) ; retrieve measured z-score.
-0.493

I'd like to know its z-score. The molecule in question is COc1ccc([Si](C)(C)[C@H]2[C@H](CCn3cc([C@H](O)c4ccccc4)nn3)O[C@@]3(C(=O)N(Cc4ccc(N5CCOC5=O)cc4)c4ccccc43)[C@@H]2C)cc1
-0.0848

I would be grateful if you could share the reported z-score for C[C@H]1C2=C3C(CC[C@H]4C(OCc5ccc(F)cc5C(F)(F)F)OC[C@](C)([C@@H]34)N(C(=O)OC(C)(C)C)C2)C(CO)C1CO (stereo partly drawn) .
0.52

I have this molecule here, CCCCN1CC=CC23O[C@@H]4C=CCOC(=O)[C@@H]4[C@H]2C(=O)N(CCCO)[C@@H]3C1=O (stereo partly drawn) , and I need its recorded z-score.
-0.169

Given the molecule CN1C2C=C(CCCO)C(C3C(=O)N(C(N)=O)C(=O)C32)C1c1cccs1 (stereo not drawn) , what is its reported z-score?
0.133

I'd like to know its z-score. The molecule in question is O=C1O[C@@H](c2ccccc2)[C@@H](c2ccccc2)N2[C@@H](c3ccccc3OCCO)[C@]3(C(=O)Nc4ccc(C#CC5=CCCCC5)cc43)[C@@H](C(=O)NC[C@H](O)c3ccccc3)[C@H]12
-0.415

Name the recorded z-score for CN(C)CCCCNC(=O)[C@H]1C[C@H]2C(=O)N3CCC[C@H]3C(=O)N2[C@H]1c1ccc(O)cc1 .
0.513

Fill blank: measured z-score of the molecule C[C@H]1C2=C3C(CC[C@H]4C(OCc5ccc(F)cc5C(F)(F)F)OC[C@](C)([C@@H]34)N(C(=O)OC(C)(C)C)C2)C2COC(=O)OCC21 (stereo partly drawn) is ____.
0.439

What measured z-score goes with C=C(COC)/C(=C/C[C@@H](OC(=O)c1ccncc1)c1cccc(OCCO)c1)c1cnc2ccccc2c1 ?
0.376

Please give the measured z-score for this molecule: CO[C@H]1O[C@H](CO)[C@@H](OC(=O)Nc2ccccc2-c2ccccc2)[C@H](OC(=O)Nc2ccc3c(c2)OCO3)[C@@H]1OC(=O)Nc1ccc2c(c1)OCO2
0.24

Using the record for COc1ccc(CCNC(=O)[C@@]2(Sc3ccc(C)cc3)CC(=O)N(Cc3cc(C(F)(F)F)cc(C(F)(F)F)c3)[C@@H]2c2ccc(CO)cc2I)cc1 , report its z-score.
0.688

Please give the measured z-score for this molecule: COCC(=C=CC[C@H](O)c1ccc(OCCO)cc1)C[C@H](O)COCc1ccccc1
0.19

Cited source: PubChem BioAssay
